Test: Fasting plasma OA levels in the PREDIABOLE Study (GC-MS)
Format: in vivo, human
Conditions: human, in vivo; after 30 months of follow-up, both study groups
TEST_READOUT: concentration at 30 months

For the molecule CC1(C)CC[C@]2(C(=O)O)CC[C@]3(C)C(=CC[C@@H]4[C@@]5(C)CC[C@H](O)C(C)(C)[C@@H]5CC[C@]43C)[C@@H]2C1 [OA, 3b-hydroxy-olean-12-en-28-oic acid] , report concentration at 30 months.
~300 ng/mL
